Values were extracted from the supplement of paper PMC7661543.

system: BT-20; experiment: relative cell number vs DMSO control (72 h) (% of DMSO); higher = less growth inhibition (more cells); details: sgRNA knockout: sgNT, 100 nM
measure: relative cell number
Answer with the value's number alone.

Observe how each entry below is paired with its result.
compound	relative cell number
COc1cc([C@@H]2c3cc4c(cc3[C@@H](O[C@@H]3O[C@@H]5CO[C@@H](C)O[C@H]5[C@H](O)[C@H]3O)[C@H]3COC(=O)[C@H]23)OCO4)cc(OC)c1O [Etoposide]	83
C[C@H]1CCC/C=C/[C@@H]2C[C@H](O)C[C@H]2[C@H](O)/C=C/C(=O)O1 [BrefeldinA]	25.6
O=C(CCc1ccc(O)cc1)c1c(O)cc(O)cc1O [Phloretin]	105
CC(C)C[C@H](NC(=O)[C@H](Cc1ccccc1)NC(=O)c1cnccn1)B(O)O [Bortezomib]	24.7
CCC[C@H](NC(=O)/C(C#N)=C/c1cccc(Br)n1)c1ccccc1 [WP1130]	78.7
CC[C@H](C)C(=O)O[C@H]1C[C@@H](C)C=C2C=C[C@H](C)[C@H](CC[C@@H]3C[C@@H](O)CC(=O)O3)[C@H]21 [Lovastatin]	78.7

**Query** Give its relative cell number value. Item: O=C1c2c(O)ccc(O)c2C(=O)c2c(NCCNCCO)ccc(NCCNCCO)c21 [Mitoxantrone]
**Result** 39.2

**Query** Give its relative cell number value. Item: CCN1CCN(c2ccc(Nc3cc(N(C)C(=O)Nc4c(Cl)c(OC)cc(OC)c4Cl)ncn3)cc2)CC1 [BGJ398]
**Result** 104

**Query** Give its relative cell number value. Item: COc1cc(C(=O)N2CCC(N3CCN(C)CC3)CC2)ccc1Nc1ncc2c(n1)N(C)c1ccccc1C(=O)N2C [LRRK2IN1]
**Result** 93.7

**Query** Give its relative cell number value. Item: O=C(c1ccc(/C=C/c2n[nH]c3ccccc23)cc1)N1CCNCC1 [KW2449]
**Result** 89.6

**Query** Give its relative cell number value. Item: COC(=O)/C=C/C(=O)OC [DimethylFumarate]
**Result** 98.2
